Tested on: SF-268 CNS
Assay: NCI tumour cell line growth inhibition, 48 h
attribute.measured: TGI

Recorded TGI (molecule O=C1OC(=O)C2=C1C(c1cccs1)C=C(c1cccnc1)N2c1ccncc1 (configuration not stated) ): 48.2 µM

Recorded TGI (molecule COc1ccc(C(O)c2cc3c(N)c(C(=O)Nc4cccc(OC)c4)sc3nc2C)cc1 (configuration not stated) ): 37.9 µM

Recorded TGI (molecule COc1ccc2c(=O)c(-c3cc4c(cc3OC)OCO4)coc2c1 ): > 100 µM

Recorded TGI (molecule CCC1([N+](=O)[O-])CC2C=CC1C2 (configuration not stated) ): > 100 µM

Recorded TGI (molecule ClCCN1CCOC1=C1C=CC=C1 ): > 100 µM

Recorded TGI (molecule SCCCSCCSCCCSCCS ): > 100 µM

Recorded TGI (molecule O=C1OC(CC(=O)c2ccccc2Cl)C(Cl)=C1Cl (configuration not stated) ): > 100 µM

Recorded TGI (molecule CCOC(=O)c1c(-c2ccccc2)oc(=O)c(Cc2cccc3cccnc23)c1-c1ccccc1 ): > 10 µM

Recorded TGI (molecule CC[C@]1(Cc2ccc(OC)c(OC)c2)[C@@H]2C[C@@H](C(=O)OC)ON2O[C@H](OC2CCCC2(c2ccccc2)c2ccccc2)[C@@H]1OC(C)=O (some centres not stated) ): > 100 µM

Recorded TGI (molecule CNC(=S)NC(=S)N(C)C ): > 100 µM

Recorded TGI (molecule CC(=O)NC1=C(C)C(=O)c2c(nc3n2CCC3OC(=O)c2ccccc2)C1=O (configuration not stated) ): 4.52 µM

Recorded TGI (molecule C=C1C/C(=C/C)C(=O)O[C@@H]2CCN3CC=C(COC(=O)[C@]1(C)O)[C@H]23 ): > 100 µM

Recorded TGI (molecule CN1CCN(CCCCN2c3ccccc3Sc3ccc(C(=O)c4ccccc4)cc32)CC1 ): 13 µM

Recorded TGI (molecule COc1cc(CCCl)c(CC2=NCCc3cc(OC)c(OC)cc32)cc1OC ): > 100 µM

Recorded TGI (molecule Cc1oc2c(c1C)S(=O)(=O)C(C#N)=CN2 ): > 100 µM

Recorded TGI (molecule O=C(c1ccccc1)c1nc2ccc(Cl)cc2c2c1Cc1ccccc1-2 ): > 100 µM

Recorded TGI (molecule CCCC(=O)c1ccc2c(ccc(=O)n2C)c1 ): > 100 µM

Recorded TGI (molecule Oc1ccc(-c2cn3ccsc3n2)cc1O ): > 100 µM

Recorded TGI (molecule OC1(c2ccccc2)CCCCCCCCC(O)(c2ccccc2)CCCCCCCC1 (configuration not stated) ): > 100 µM

Recorded TGI (molecule CC1=C[C@H](O)[C@@]2(C)[C@@H]([C@@H]1C)[C@H]1CC[C@@H]3[C@@]4(C)CC[C@H](O)C(C)(C)[C@@H]4CC[C@@]3(C)[C@]1(C)C[C@@H]2O ): 25.3 µM

Recorded TGI (molecule C=CCN1C2Cc3cc(OC)c(OC)cc3C1Cc1cc(OC)c(OC)cc12 ): > 100 µM

Recorded TGI (molecule COC1=C(OC)C23CCc4ccc(OC)c(O)c4C2(CCN3)CC1=O (configuration not stated) ): > 100 µM

###

Kindly supply the reported TGI values for the records listed here.
System: NCI-H522 lung
Assay: NCI tumour cell line growth inhibition, 48 h
Record the value in µM, omitting the unit from your answer.

Recorded TGI (compound CCC(=C/[C@H](C)C/C=C/C(C)=C/[C@@H](C)C(=O)[C@@H](C)[C@H](O)[C@@H](C)CC)/C=C/[C@@H]1OC(=O)C=C[C@@H]1C ): 0.0817

Recorded TGI (compound CCc1c(C)[nH]c2c1/C(=N/N=C1\CCCc3[nH]c(C)c(CC)c31)CCC2 ): 33.1

Recorded TGI (compound COC(=O)c1c2c(c3[nH]c4ccccc4c3c1C(=O)OC)C(=O)C1=C(C2=O)C2(Cl)C(Cl)C(Cl)C1(Cl)C2(Cl)Cl (centres undefined) ): 2.72

Recorded TGI (compound COc1cc(NC(=O)c2ccc(C(F)(F)F)nc2Nc2cc(Cl)ccc2C)cc(OC)c1OC ): 18.2
